Experiment: Cytotoxicity against human BJ cells assessed as inhibition of cell growth incubated for 72 hrs by MTS assay
Format: toxicity, cell-based
Here the recorded IC50 at 72 h is given for each entry.
Reply numerically in µM, unit not repeated.

SMI	RECORDED NUMBER
CC1(C)[C@@H](O)CC[C@]2(C)[C@H]3CC[C@@H]4[C@H]5[C@H](c6ccc(C#N)c(C#N)c6)CC[C@]5(C(=O)O)CC[C@@]4(C)[C@]3(C)CC[C@@H]12	35.5

# next molecule below
Query: IC50 at 72 h; subject: "COC(=O)c1cc([C@@H]2CC[C@]3(C(=O)O)CC[C@]4(C)[C@H](CC[C@@H]5[C@@]6(C)CC[C@H](O)C(C)(C)[C@@H]6CC[C@]54C)[C@@H]23)cc(C)c1C(=O)OC"
33

* * *

Test system: K562
Test: Cytotoxicity against human K562 cells assessed as inhibition of cell growth incubated for 72 hrs by MTS assay
Assay type: functional, cell-based
Settings: K562, 72 h
Threshold-based label: IC50 under 20 µM gives t, IC50 not under 20 µM gives f.

Observe how each entry below is paired with its result.
SMI	ASSIGNED CLASS
CC1(C)[C@@H](O)CC[C@]2(C)[C@H]3CC[C@@H]4[C@H]5[C@H](c6cc7c(c(-c8ccccc8)c6)C(=O)NC7=O)CC[C@]5(C(=O)O)CC[C@@]4(C)[C@]3(C)CC[C@@H]12	t
CC(=O)O[C@H]1CC[C@]2(C)[C@H]3CC[C@@H]4[C@H]5[C@H](c6cc7c(c(-c8ccccc8)c6)C(=O)N(c6nccs6)C7=O)CC[C@]5(C(=O)O)CC[C@@]4(C)[C@]3(C)CC[C@H]2C1(C)C	f
CC(=O)Nc1ccc(N2C(=O)c3ccc([C@@H]4CC[C@]5(C(=O)O)CC[C@]6(C)[C@H](CC[C@@H]7[C@@]8(C)CC[C@H](OC(C)=O)C(C)(C)[C@@H]8CC[C@]76C)[C@@H]45)cc3C2=O)cc1	f
CC(=O)O[C@H]1CC[C@]2(C)[C@H]3CC[C@@H]4[C@H]5[C@H](c6cc7c(c(-c8ccccc8)c6)C(=O)NC7=O)CC[C@]5(CO)CC[C@@]4(C)[C@]3(C)CC[C@H]2C1(C)C	f
COC(=O)c1ccc([C@@H]2CC[C@]3(CO)CC[C@]4(C)[C@H](CC[C@@H]5[C@@]6(C)CC[C@H](O)C(C)(C)[C@@H]6CC[C@]54C)[C@@H]23)cc1C(=O)OC	f

Please indicate whether the reported IC50 of "COc1ccc(N2C(=O)c3ccc([C@@H]4CC[C@]5(COC(C)=O)CC[C@]6(C)[C@H](CC[C@@H]7[C@@]8(C)CC[C@H](OC(C)=O)C(C)(C)[C@@H]8CC[C@]76C)[C@@H]45)cc3C2=O)cc1" is strictly below 20 µM.
f

Find out if reported IC50 for "CC1(C)[C@@H](O)CC[C@]2(C)[C@H]3CC[C@@H]4[C@H]5[C@H](c6cc7c(c(-c8ccccc8)c6)C(=O)N(c6ccc(C#N)cc6)C7=O)CC[C@]5(C(=O)O)CC[C@@]4(C)[C@]3(C)CC[C@@H]12" is less than 20 µM
f

Regarding "CC(=O)O[C@H]1CC[C@]2(C)[C@H]3CC[C@@H]4[C@H]5[C@H](c6ccc7c(c6)C(=O)NC7=O)CC[C@]5(CO)CC[C@@]4(C)[C@]3(C)CC[C@H]2C1(C)C" , kindly confirm whether its IC50 is beneath 20 µM.
f

Take the molecule "CC1(C)[C@@H](O)CC[C@]2(C)[C@H]3CC[C@@H]4[C@H]5[C@H](c6ccc(C(=O)O)c(C(=O)O)c6)CC[C@]5(C(=O)O)CC[C@@]4(C)[C@]3(C)CC[C@@H]12" and say whether its IC50 is less than 20 µM.
f

I'd appreciate it if you could check whether "COC(=O)c1ccc([C@@H]2CC[C@]3(C(=O)O)CC[C@]4(C)[C@H](CC[C@@H]5[C@@]6(C)CC[C@H](O)C(C)(C)[C@@H]6CC[C@]54C)[C@@H]23)cc1C(=O)OC" has IC50 smaller than 20 µM.
t

Would you kindly verify if IC50 of "COC(=O)c1cc([C@@H]2CC[C@]3(CO)CC[C@]4(C)[C@H](CC[C@@H]5[C@@]6(C)CC[C@H](O)C(C)(C)[C@@H]6CC[C@]54C)[C@@H]23)cc(-c2ccccc2)c1C(=O)OC" is strictly less than 20 µM?
f

Consider "CC1(C)[C@@H](O)CC[C@]2(C)[C@H]3CC[C@@H]4[C@H]5[C@H](c6cc7c(c(-c8ccccc8)c6)C(=O)N(c6ccccc6)C7=O)CC[C@]5(C(=O)O)CC[C@@]4(C)[C@]3(C)CC[C@@H]12" . Does its IC50 lie strictly below 20 µM?
f

# check: IC50 < 20 µM for "CC(=O)Nc1ccc(N2C(=O)c3cc([C@@H]4CC[C@]5(C(=O)O)CC[C@]6(C)[C@H](CC[C@@H]7[C@@]8(C)CC[C@H](OC(C)=O)C(C)(C)[C@@H]8CC[C@]76C)[C@@H]45)cc(-c4ccccc4)c3C2=O)cc1"
f

Could you please tell me whether IC50 recorded for "COC(=O)c1cc([C@@H]2CC[C@]3(C(=O)O)CC[C@]4(C)[C@H](CC[C@@H]5[C@@]6(C)CC[C@H](O)C(C)(C)[C@@H]6CC[C@]54C)[C@@H]23)cc(C)c1C(=O)OC" is less than 20 µM?
t

Does "CC1(C)[C@@H](O)CC[C@]2(C)[C@H]3CC[C@@H]4[C@H]5[C@H](c6ccc7c(c6)C(=O)N(c6ccc(C#N)cc6)C7=O)CC[C@]5(C(=O)O)CC[C@@]4(C)[C@]3(C)CC[C@@H]12" have IC50 strictly under 20 µM?
f

Determine if "COc1ccc(N2C(=O)c3ccc([C@@H]4CC[C@]5(CO)CC[C@]6(C)[C@H](CC[C@@H]7[C@@]8(C)CC[C@H](OC(C)=O)C(C)(C)[C@@H]8CC[C@]76C)[C@@H]45)cc3C2=O)cc1" shows IC50 strictly lower than 20 µM.
f

A record lists "CC1(C)[C@@H](O)CC[C@]2(C)[C@H]3CC[C@@H]4[C@H]5[C@H](c6cc7c(c(-c8ccccc8)c6)C(=O)N(c6ccc(N)cc6)C7=O)CC[C@]5(C(=O)O)CC[C@@]4(C)[C@]3(C)CC[C@@H]12" . Is its IC50 below 20 µM?
f

Given "CC1(C)[C@@H](O)CC[C@]2(C)[C@H]3CC[C@@H]4[C@H]5[C@H](c6ccc7c(c6)C(=O)N(c6ccccc6)C7=O)CC[C@]5(C(=O)O)CC[C@@]4(C)[C@]3(C)CC[C@@H]12" , is recorded IC50 strictly lower than 20 µM?
f
